We begin with a simple list: items and their reported microsomal CLint at 1 μM.
Assay Explanation: Microsomal stability assay, mouse liver microsome
Type: in vitro ADME
Condition Details: liver microsomes, pH 7.4, 0.2 mg/mL, 1 μM compound, 37° C., read-out: Clint MLM
Protocol: Incubation mixture contained 0.2 mg/mL microsomes, 1 mmol NADPH, and test compound at 1 μM in 100 mmol potassium phosphate buffer at pH 7.4. The mixtures were incubated at 37° C. for 5, 15, and 30 minutes. Aliquots of the mixtures were taken at 0, 5, 15 and 30 minutes and quenched with chilled Acetonitrile:Methanol (50:50) containing internal standard. […] The supernatant was analyzed by LC-MS/MS and half-life, as well as intrinsic clearance (Clint), were calculated.
The reply should consist of the numeric value with the unit placed after it.

The compound listed as COc1cc(C2=CCNCC2)ccc1-c1cc(Nc2cnc(C#N)cn2)on1 [Compound 1.9] shows microsomal CLint at 1 μM equal to 83 µL/min/mg

The compound listed as CN1CC(Oc2ccccc2-c2cc(Nc3cnc(C#N)cn3)no2)C1 [Compound 1.10] shows microsomal CLint at 1 μM equal to 243 µL/min/mg

The compound listed as N#Cc1cnc(Nc2cc(-c3cc4ccccc4cc3OCC3CNCCO3)[nH]n2)cn1 (stereo not drawn) [Compound 2.3] shows microsomal CLint at 1 μM equal to 85 µL/min/mg

The compound listed as N#Cc1cnc(Nc2cc(-c3ccccc3OCC3CCNCC3)on2)cn1 [Compound 1.2] shows microsomal CLint at 1 μM equal to 39 µL/min/mg

The compound listed as N#Cc1cnc(Nc2cc(-c3ccccc3OC3CNC3)on2)cn1 [Compound 1.4] shows microsomal CLint at 1 μM equal to 66 µL/min/mg

The compound listed as N#Cc1cnc(Nc2cc(-c3ccccc3OCC3CNCCO3)on2)cn1 (stereo not drawn) [Compound 1.1] shows microsomal CLint at 1 μM equal to 100 µL/min/mg

----------
Assay Explanation: Caco-2 cell permeability assay
Assay type: in vitro ADME
Condition Details: human; Caco-2, A to B, 120 minutes, pH 7.4
We begin with a simple list: items and their reported Papp A→B at 120 min.
Please state the figure in ×10⁻⁶ cm/s; there is no need to write the unit.

Consider the following illustrative entries.
N#Cc1cnc(Nc2cc(-c3ccccc3OCC3CCNCC3)on2)cn1 [Compound 1.2]; 5.35
N#Cc1cnc(Nc2cc(-c3ccccc3OCC3CNCCO3)on2)cn1 (stereo not drawn) [Compound 1.1]; 7

Next molecule, Papp A→B at 120 min to be filled in.
The molecule listed as N#Cc1cnc(Nc2cc(-c3ccccc3OCC3CCCNC3)on2)cn1 (stereo not drawn) [Compound 1.3] shows Papp A→B at 120 min equal to 3.4

----------
We begin with a simple list: items and their reported solubility kinetic at 1 h.
Assay Explanation: physchem
Condition Details: 37 °C, pH 7.4, aqueous buffer, kinetic from dmso stock

COc1cc(C2=CCN(C)CC2)ccc1-c1cc(Nc2cnc(C#N)cn2)on1 [Compound 1.22]; 28.4 µM
COc1cc(C2=CCNCC2)ccc1-c1cc(Nc2cnc(C#N)cn2)on1 [Compound 1.9]; 100 µM

Next compound, solubility kinetic at 1 h to be filled in.
The compound listed as COc1cc(C2=CCNCC2)ccc1-c1cc(Nc2cnc(C#N)cn2)no1 [Compound 1.19] shows solubility kinetic at 1 h equal to 27.6 µM
